// values below are reported melting point

Tell me the measured melting point of CC(=O)c1cccc(Oc2ncccc2C(=O)NCc2ccc(C(C)(C)O)cc2F)c1 [Example 237] , please.
68 to 70 °C

Which melting point value is on record for CC(=O)Nc1cccc(Oc2ncccc2C(=O)NCc2ccc(C(C)(C)O)cc2)c1 [Example 126] ?
155 to 157 °C

Give the measured melting point of O=C(NCc1ccc(Cl)s1)c1cccnc1Oc1ccc(F)cc1 [Example 61] .
91 to 93 °C

###

PROPERTY LABEL: melting point

Here is how some compounds turned out for melting point.
{"columns": ["COMPOUND", "melting point"],
 "data": [
  ["COc1ccccc1NC(=O)Nc1cccc(Oc2ncccc2C(=O)NCc2ccccc2Cl)c1", "180 to 182 °C"],
  ["NC(=O)c1cccc(Oc2ncccc2C(=O)NCc2ccccc2Cl)c1", "153 to 155 °C"],
  ["CC(C)(O)c1ccc(CNC(=O)c2cccnc2Oc2ccc3ncoc3c2)cc1", "92 to 94 °C"],
  ["CC(C)(O)[C@H]1CC[C@H](CNC(=O)c2cccnc2Oc2ccc(F)c(F)c2)CC1", "80 to 82 °C"],
  ["CC(=O)c1cccc(Oc2ncccc2C(=O)NCc2ccc(C(C)(C)O)cc2Cl)c1", "102 to 104 °C"]
]}

Recorded melting point of CC(=O)c1ccc(CC(=O)Nc2cccnc2Oc2cccnc2)cc1 , please.
110 to 112 °C

Could you share which melting point value was measured for CC[C@H](C)NC(=O)c1cccnc1Oc1cccnc1 ?
64 to 65 °C

Fill blank: measured melting point of the compound O=C(NCc1ccc(Cl)o1)c1cccnc1Oc1cncc(Cl)c1 is ____.
111 to 113 °C

Tell me the measured melting point of N#Cc1cccc(Oc2ncccc2C(=O)NCc2ccccc2Cl)c1 , please.
135 to 137 °C

Value lookup for melting point; key = CC[C@@H](C)NC(=O)c1cccnc1Oc1cccnc1
55 to 56 °C

What measured melting point goes with O=C(NCc1ccc(C2(O)CCC2)cc1)c1cccnc1Oc1ccc(F)c(F)c1 ?
74 to 76 °C

Need melting point, item CC(C)(O)c1ccc(CNC(=O)c2cccnc2Oc2cccc(F)c2)cc1
106 to 108 °C

Which melting point is reported for this compound? CC(C)(O)c1ccc(CNC(=O)c2cccnc2Oc2cccc([N+](=O)[O-])c2)cc1
43 to 45 °C

Recorded melting point for O=C1CCN(c2ccc(CNC(=O)c3cccnc3Oc3ccc(F)cc3)cc2)CC1 , please?
138 to 139 °C

Look at this compound and give its reported melting point. CC(C)(O)c1ccc(CNC(=O)c2cccnc2Oc2cccc3c2CCC3=O)cc1
145 to 147 °C

melting point for O=C(CCc1ccc(OC(F)(F)F)cc1)c1cccnc1Oc1ccc(F)cc1 ?
79 to 81 °C

Name the recorded melting point for Cc1ccc(CNC(=O)c2cccnc2Oc2cncc(Cl)c2)s1 .
81 to 83 °C

// melting point lookup, key: CC(O)c1ccc(CNC(=O)c2cccnc2Oc2cccnc2)s1 (stereo not drawn) [Example 160]
92 to 94 °C

###

Structures can show the parent of a compound that is named as a salt.
melting point listing for selected molecules.

Sample records with melting point:
{"columns": ["MOLECULE", "melting point"],
 "data": [
  ["O=C(NCc1ccco1)c1cccnc1Oc1cccnc1", "84 to 86 °C"],
  ["CC(C)(O)c1ccc(CNC(=O)c2cccnc2Oc2cc(F)cc(F)c2)cc1", "68 to 70 °C"],
  ["C[C@@H](NC(=O)c1cccnc1Oc1cccnc1)c1cccs1 (as salt: HCl)", "197 to 199 °C"]
]}

Would you mind telling me what melting point value was observed for O=C(NCc1ccc(N2CCOCC2)cc1)c1cccnc1Oc1ccc(F)cc1 ?
163 to 165 °C

Item under review: O=C(NCc1cc2ccccc2s1)c1cccnc1Oc1cncc(Cl)c1 . Reported melting point?
160 to 162 °C

Data provenance: patent US6380218B1
